Hey, just so you know, these numbers are from the supplement of paper PMC10567573.

Listed here: items and their measured protein stability index.
B1: KCNAB2 (parent)
chain: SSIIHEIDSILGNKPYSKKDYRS

# Variants of: B1
# PROCEDURE TEXT: protein stability index of a GFP-peptide fusion (GPS, HEK-293T) (PSI 1-6); higher = more stable;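 further: lentivirally expressed fusions sorted by FACS into six bins by GFP to DsRed ratio, PSI derived from sequencing read proportions per bin multiplied by bin number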
# EXPERIMENTAL CONTEXT: c terminus: native
OBSERVABLE: protein stability index

• SSIIHEIDPILGNKPYSKKDYRS [S9P] = 3.81
• SSIIHEIDSILGNKKYSKKDYRS [P15K] = 3.36
• SSIIHEIDSILGNKPYSKFDYRS [K19F] = 2.66
• SSIIHIIDSILGNKPYSKKDYRS [E6I] = 2.01
• SSIIHEIDSKLGNKPYSKKDYRS [I10K] = 4.87
• SSIIHEIDSILGNKPDSKKDYRS [Y16D] = 3.65
• SSIIHEIDRILGNKPYSKKDYRS [S9R] = 2.58
• SSIIHEIDSILGNKPYSKKDYRP [S23P] = 3.8
• SSIIHEIDSILGNKPYSKKDYRC [S23C] = 3.67
• SSIIHEIDSILGNKPLSKKDYRS [Y16L] = 3.22
• SSIIGEIDSILGNKPYSKKDYRS [H5G] = 3.07
• SSIIHEIDSILGNKCYSKKDYRS [P15C] = 3.14
• SSIIKEIDSILGNKPYSKKDYRS [H5K] = 3.83
• SSIIHESDSILGNKPYSKKDYRS [I7S] = 4.38
• SSIIHEIDSILSNKPYSKKDYRS [G12S] = 3.51
• SSIIHEIDSILGNKPYSKKDYNS [R22N] = 4.55
• SSSIHEIDSILGNKPYSKKDYRS [I3S] = 4.63
• SSIAHEIDSILGNKPYSKKDYRS [I4A] = 3.44
• SSIIHEIDSILGNKPNSKKDYRS [Y16N] = 3.34
• SLIIHEIDSILGNKPYSKKDYRS [S2L] = 1.77
• SSIIHEIDSILMNKPYSKKDYRS [G12M] = 3.77
• SSIIHEIDSILGNHPYSKKDYRS [K14H] = 2.32
• SSIIHEIDSGLGNKPYSKKDYRS [I10G] = 4.32
• SSIIHEIDSILGNKPQSKKDYRS [Y16Q] = 3.14
• SSIIHEIDSILGNKPYSDKDYRS [K18D] = 2.7
• SSIIHEIDSILGNKPYRKKDYRS [S17R] = 3.23
• VSIIHEIDSILGNKPYSKKDYRS [S1V] = 2.34
• SSNIHEIDSILGNKPYSKKDYRS [I3N] = 4.2
• SSIIWEIDSILGNKPYSKKDYRS [H5W] = 2.2
• SRIIHEIDSILGNKPYSKKDYRS [S2R] = 3.13
• SSIIHEIDSILGNKPYSKKDARS [Y21A] = 3.77
• SSIIHEIDVILGNKPYSKKDYRS [S9V] = 2.53
• SGIIHEIDSILGNKPYSKKDYRS [S2G] = 3.2
• SSIIHEIDSILGNKSYSKKDYRS [P15S] = 3.42
• CSIIHEIDSILGNKPYSKKDYRS [S1C] = 2.47
• SSIIHEIDSILGNKPMSKKDYRS [Y16M] = 2.71
• SSIIHAIDSILGNKPYSKKDYRS [E6A] = 1.72
• SSIIHKIDSILGNKPYSKKDYRS [E6K] = 3.21
• SSIIHEIDSILGNKLYSKKDYRS [P15L] = 2.84
• SSIIHEIDSILGNKPYSKKDYRM [S23M] = 3.96
• SSIIHEEDSILGNKPYSKKDYRS [I7E] = 4.51
• SSIIHEIDSILGNKFYSKKDYRS [P15F] = 2.32
• SSIIHEIDSILGNKPYSKKDYRL [S23L] = 3.9
• SSIIHEIDSILGNKPYSKKDCRS [Y21C] = 3.13
• SSIIHRIDSILGNKPYSKKDYRS [E6R] = 2.26
• SSIIHEIDSILGNKPYQKKDYRS [S17Q] = 3.76
• SSIIHEHDSILGNKPYSKKDYRS [I7H] = 3.97
• SSIIHEIDKILGNKPYSKKDYRS [S9K] = 3.54
• SSIIHEIDSILGNKEYSKKDYRS [P15E] = 3.18
• SSIIHEIDSILGNKDYSKKDYRS [P15D] = 3.27
• SSIIHTIDSILGNKPYSKKDYRS [E6T] = 2.23
• SSIIHEIDSILGNKPYSKKGYRS [D20G] = 3.07
• SSIIIEIDSILGNKPYSKKDYRS [H5I] = 1.48
• SSIIHEIDSILGNKPYSKNDYRS [K19N] = 4.06
• SVIIHEIDSILGNKPYSKKDYRS [S2V] = 1.89
• LSIIHEIDSILGNKPYSKKDYRS [S1L] = 2.13
• SSIIQEIDSILGNKPYSKKDYRS [H5Q] = 3.02
• SSIIREIDSILGNKPYSKKDYRS [H5R] = 3.64
• SWIIHEIDSILGNKPYSKKDYRS [S2W] = 2.66
• SSISHEIDSILGNKPYSKKDYRS [I4S] = 3.25
• SSIIHEIDSILGNKPYSKKDYTS [R22T] = 4.28
• SSCIHEIDSILGNKPYSKKDYRS [I3C] = 3.85
• SSIIHEIDSILGNKPYSKKWYRS [D20W] = 1.92
• SSIIHEIDSILGNKPYSKKDYRA [S23A] = 3.37
• SSIIHEIDSILGNKPYSCKDYRS [K18C] = 2.08
• SSIIHEIDSILGNKPYSKPDYRS [K19P] = 4.09
• SSIIHEIDSILGNIPYSKKDYRS [K14I] = 2.63
• SSIIHEIDSVLGNKPYSKKDYRS [I10V] = 3.67
• SSIIHEIDSILGNKRYSKKDYRS [P15R] = 2.98
• SSIIHEIDSILGNKPYSRKDYRS [K18R] = 2.94
• SSIIHEIDSILGNKPYSKVDYRS [K19V] = 3.82
• SSIIHEIDSILGNKPYSKRDYRS [K19R] = 2.89
• SSIKHEIDSILGNKPYSKKDYRS [I4K] = 2.81
• SSIIHEIDSILGNKPYSKKDYPS [R22P] = 4.29
• FSIIHEIDSILGNKPYSKKDYRS [S1F] = 2.06
• SSIIHEIDSILGNCPYSKKDYRS [K14C] = 2.55
• SSIIHEIDSILGNKPYSKKEYRS [D20E] = 2.89
• SSIIHEIQSILGNKPYSKKDYRS [D8Q] = 3.06
• SSIIYEIDSILGNKPYSKKDYRS [H5Y] = 2.05
• SSIIHEIDSILGNKPYSKKDYAS [R22A] = 4.01
• SSIIHEIDSILGNFPYSKKDYRS [K14F] = 1.99
• SSIIHEIDSILGNKPYSKEDYRS [K19E] = 4.45
• SSIIHEIDSILGNKPYSKTDYRS [K19T] = 4.16
• SSMIHEIDSILGNKPYSKKDYRS [I3M] = 3.17
• SSIIHEIDLILGNKPYSKKDYRS [S9L] = 2.38
• SSIIHEIDSIKGNKPYSKKDYRS [L11K] = 4.03
• SSIIHEIDSHLGNKPYSKKDYRS [I10H] = 4.15
• SSIIFEIDSILGNKPYSKKDYRS [H5F] = 2.21
• SSIIHEIDSILGNKPESKKDYRS [Y16E] = 4.12
• MSIIHEIDSILGNKPYSKKDYRS [S1M] = 1.8
• HSIIHEIDSILGNKPYSKKDYRS [S1H] = 2.46
